Biological target: T1, human LAG-3 on cells (HEK293-hLAG-3 stable cell line) (human, UniProt P18627 23-525)
T1 sequence: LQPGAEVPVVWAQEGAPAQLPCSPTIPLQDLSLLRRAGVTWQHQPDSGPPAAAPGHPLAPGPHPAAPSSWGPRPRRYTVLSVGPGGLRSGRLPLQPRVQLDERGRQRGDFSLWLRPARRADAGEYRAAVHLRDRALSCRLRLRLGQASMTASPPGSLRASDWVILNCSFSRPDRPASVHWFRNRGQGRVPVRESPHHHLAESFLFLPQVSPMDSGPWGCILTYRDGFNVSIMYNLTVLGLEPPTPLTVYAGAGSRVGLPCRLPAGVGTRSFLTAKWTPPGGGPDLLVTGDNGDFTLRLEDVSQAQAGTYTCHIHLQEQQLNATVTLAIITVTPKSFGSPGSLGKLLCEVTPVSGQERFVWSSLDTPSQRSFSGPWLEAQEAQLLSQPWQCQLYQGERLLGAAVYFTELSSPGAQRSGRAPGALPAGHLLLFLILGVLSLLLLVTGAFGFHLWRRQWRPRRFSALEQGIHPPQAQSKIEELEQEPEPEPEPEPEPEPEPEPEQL
Test: FACS, HEK293-hLAG-3, antibody 40 nM
measurement-kind: Mean fluorescence intensity
Answers are plain numbers.

556F6B8-5 humanized antibody (antibody, V domains shown) VH: QVQLQESGPGLVKPSETLSLTCTVSGGSISKYGVHWIRQPPGKGLEWIGVIWRGGITDYNAAFMSRVTISVDTSKNQFSLKLSSVTAADTAVYYCARWDGPLAMDYWGQGTTVTVSS VL: DIVLTQSPSFLSASVGDRVTITCKASQDVGTTVAWYQQKPGKAPKLLIYWASTRHTGVPSRFSGSGSGTEFTLTISSLQPEDFATYYCQQYSSYPYTFGQGTKLEIK	32
556F6B8-8 humanized antibody (antibody, V domains shown) VH: RVQLQESGPGLVKPSETLSLTCTVSGFSLIKYGVHWIRQPPGKGLEWIGVIWRGGITDYNAAFMSRVTISKDTSKSQVSLKLSSVTAADTAVYYCAKWDGPLAMDYWGQGTTVTVSS VL: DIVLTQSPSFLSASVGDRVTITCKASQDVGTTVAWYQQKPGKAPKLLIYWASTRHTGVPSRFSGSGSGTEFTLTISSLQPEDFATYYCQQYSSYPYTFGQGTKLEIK	83
556F6B8-7 humanized antibody (antibody, V domains shown) VH: QVQLQESGPGLVKPSETLSLTCTVSGFSLIKYGVHWIRQPPGKGLEWIGVIWRGGITDYNAAFMSRVTISKDTSKSQVSLKLSSVTAADTAVYYCARWDGPLAMDYWGQGTTVTVSS VL: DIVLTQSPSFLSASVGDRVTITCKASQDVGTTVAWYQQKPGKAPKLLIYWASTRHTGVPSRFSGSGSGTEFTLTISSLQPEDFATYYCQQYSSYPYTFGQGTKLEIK	98

For every item below, please supply its Mean fluorescence intensity.
1. 556F6B8-9 humanized antibody (antibody, V domains shown) VH: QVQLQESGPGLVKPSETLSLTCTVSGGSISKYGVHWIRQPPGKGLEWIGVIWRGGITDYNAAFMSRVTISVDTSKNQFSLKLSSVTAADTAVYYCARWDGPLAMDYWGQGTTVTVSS VL: DIVLTQSPSFLSASVGDRVTITCKASQDVGTTVAWYQQKPGKSPKLLIYWASTRHTGVPSRFSGSGSGTEFTLTISSLQPEDFATYYCQQYSSYPYTFGQGTKLEIK
2. 556F6B8-2 humanized antibody (antibody, V domains shown) VH: QVQLQESGPGLVKPSETLSLTCTVSGFSIIKYGVHWIRQPPGKGLEWIGVIWRGGITDYNAAFMSRVTISVDTSKNQFSLKLSSVTAADTAVYYCARWDGPLAMDYWGQGTTVTVSS VL: DIQLTQSPSFLSASVGDRVTITCKASQDVGTTVAWYQQKPGKAPKLLIYWASTRHTGVPSRFSGSGSGTEFTLTISSLQPEDFATYYCQQYSSYPYTFGQGTKLEIK

33
49

Recorded values, source patent US20210155689A1.
